Values compiled from patent US12122767B2.

Experimental Target: FGFR3 enzyme (Millipore) (Homo sapiens)
Construct: purchased Millipore
Sequence (P22607 23-806): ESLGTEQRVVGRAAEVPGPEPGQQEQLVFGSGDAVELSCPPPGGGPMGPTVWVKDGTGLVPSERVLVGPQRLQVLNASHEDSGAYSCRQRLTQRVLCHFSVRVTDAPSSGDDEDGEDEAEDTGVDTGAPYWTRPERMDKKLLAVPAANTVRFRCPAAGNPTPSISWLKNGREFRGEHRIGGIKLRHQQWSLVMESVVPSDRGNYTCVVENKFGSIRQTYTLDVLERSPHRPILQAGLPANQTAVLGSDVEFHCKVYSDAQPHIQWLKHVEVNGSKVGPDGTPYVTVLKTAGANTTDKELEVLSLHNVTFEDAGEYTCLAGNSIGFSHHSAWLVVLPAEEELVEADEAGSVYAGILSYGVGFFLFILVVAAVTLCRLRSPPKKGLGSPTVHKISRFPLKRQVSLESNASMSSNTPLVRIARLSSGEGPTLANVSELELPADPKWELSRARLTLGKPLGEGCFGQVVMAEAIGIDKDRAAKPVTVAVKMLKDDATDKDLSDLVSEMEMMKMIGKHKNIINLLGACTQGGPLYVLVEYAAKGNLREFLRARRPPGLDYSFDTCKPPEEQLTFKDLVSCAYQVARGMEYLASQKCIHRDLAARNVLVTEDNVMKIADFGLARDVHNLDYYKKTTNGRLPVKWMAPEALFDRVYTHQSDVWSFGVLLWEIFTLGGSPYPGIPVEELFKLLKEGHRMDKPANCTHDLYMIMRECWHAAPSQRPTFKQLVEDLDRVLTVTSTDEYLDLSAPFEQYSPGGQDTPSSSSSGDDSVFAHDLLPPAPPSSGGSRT
Test Summary: FGFR Enzymatic Assay (peptide phosphorylation, FRET)
Assay type: biochemical
Run Parameters: pre-incubated for 4 hours; ATP 140 μM, peptide 500 nM
This section presents molecules with their documented IC50 values.

Examples with answers:
{"Structure Smiles": "COC(=O)N1CCC(n2cc(-c3n[nH]c4cc(OC)c(C(=O)Nc5c(C)cccc5C)cc34)cn2)CC1", "Measured Quantity": "IC50", "Data Value": "< 10 nM"}
{"Structure Smiles": "Cc1cc2[nH]nc(-c3cnn(C)c3)c2cc1C(=O)Nc1c(C)cccc1F", "Measured Quantity": "IC50", "Data Value": "≥ 200 nM"}
{"Structure Smiles": "COc1cc2[nH]nc(-c3cnn(C4CCOCC4)c3)c2cc1C(=O)Nc1c(C)cccc1C", "Measured Quantity": "IC50", "Data Value": "< 10 nM"}

IC50 recorded for this molecule, CCNC(=O)N1CC(n2cc(-c3n[nH]c4cc(OC)c(C(=O)Nc5c(C)cccc5C)cc34)cn2)C1 , is < 10 nM

Measured IC50 of COc1cc2[nH]nc(-c3ccc(N4CCN(C(C)=O)CC4)cc3)c2cc1C(=O)Nc1c(C)cccc1C : < 10 nM

Per the records, this molecule ( COc1cc2[nH]nc(-c3cnn(C4CCC4)c3)c2cc1C(=O)Nc1c(F)cccc1Cl ) has IC50 equal to < 10 nM

Reported IC50 of COc1cc2[nH]nc(-c3cnn(C)c3)c2cc1C(=O)Nc1c(C)cc(NC(C)=O)cc1C : 30 to 200 nM

Data point: COc1cc2[nH]nc(-c3cnn(Cc4cccnc4)c3)c2cc1C(=O)Nc1c(C)cccc1C ; IC50 = 10 to 30 nM
